- Tested on: HL-60(TB) leukemia
- measurement.description: NCI-60 one-dose screen, 48 h
- measurement.parameters: 10 µM unless noted
About 83,000 compounds went through this panel and 20% of them were active in at least one assay; those are over-represented in the sample as a whole. Active and inactive are the calls of the source. How the source made its calls: active means growth percent below 10; inactive means the rest.
Could you please pick one outcome from this set? active, inactive

# compound, classification
records = [
    ("CC(=NCc1ccccc1)c1ccc(O)cc1O", "inactive"),
    ("Cc1ccc(S(=O)(=O)c2nc(-c3ccccc3)oc2SCC(N)=O)cc1", "inactive"),
    ("C(=C\\c1ccccc1)/CN1CCN(C(c2ccccc2)c2ccccc2)CC1", "inactive"),
    ("O=C(CCc1nnc2sc(Cc3ccccc3Cl)nn12)c1nc2ncccc2[nH]1", "inactive"),
    ("N=C(N)c1ccc(-c2ccc(-c3cccs3)o2)cc1", "active"),
]

Task: For CCn1cc(C(=O)NN=C2CCCC2)c(=O)c2ccc(C)nc21 , what call appears in the results of this test?
Result: inactive

Task: Assay outcome for CC(=O)NCc1cc(C)c(C)cc1C : what was it?
Result: inactive

Task: What call does the record list for O=C(CN1C(=O)S/C(=C\C(Cl)=C\c2ccccc2)C1=O)NCCCn1ccnc1 ?
Result: active

Task: Query: recorded result category for Cc1nc2ccccc2c(C(=O)O)c1O in this test
Result: inactive
